Test system: Cryptococcus neoformans
Assay: Antifungal activity against Cryptococcus neoformans serotype AD after 72 hrs by broth microdilution method
Format: functional
Exam item: assign 1 to entries whose MIC50 is below 2 µg/mL and 0 to entries at or above 2 µg/mL. Note that a value of exactly 2 µg/mL receives 0.

In the record for C[C@@H](c1ncncc1F)[C@](O)(Cn1cncn1)c1ccc(F)cc1F [VORICONAZOLE] , is MIC50 less than 2 µg/mL?
1

* * *

Tested on: Cryptococcus gattii species complex
Assay: Antifungal activity against Cryptococcus gattii after 72 hrs by broth microdilution method
Format: functional, Cryptococcus bacillisporus
endpoint_name: MIC50 (µg/mL)
Provide only the numeric value, understood in µg/mL.

{"molecule_smiles": "C[C@@H]1[C@H](O)[C@@H](C)/C=C/C=C/C=C/C=C/C=C/C=C/C=C/[C@H](O[C@@H]2O[C@H](C)[C@@H](O)[C@H](N)[C@@H]2O)C[C@@H]2O[C@](O)(C[C@@H](O)C[C@@H](O)[C@H](O)CC[C@@H](O)C[C@@H](O)CC(=O)O[C@H]1C)C[C@H](O)[C@H]2C(=O)O", "assay_system": "Cryptococcus gattii species complex", "MIC50 / µg/mL": 0.25}

State, in one line, measured MIC50 of `CC[C@@H]([C@H](C)O)n1ncn(-c2ccc(N3CCN(c4ccc(OC[C@@H]5CO[C@@](Cn6cncn6)(c6ccc(F)cc6F)C5)cc4)CC3)cc2)c1=O`
0.03

* * *

Tested on: Cryptococcus gattii species complex
Test: Antifungal activity against Cryptococcus gattii serotype C after 72 hrs by broth microdilution method
Format: functional, Cryptococcus bacillisporus
Exam item: assign yes (1) to entries whose MIC90 is below 0.5 µg/mL and no (0) to entries at or above 0.5 µg/mL. Note that a value of exactly 0.5 µg/mL receives no (0).

Use the examples below as a reference point.
{"molecule_smiles": "C[C@@H](c1ncncc1F)[C@](O)(Cn1cncn1)c1ccc(F)cc1F", "class_name": "yes (1)"}
{"molecule_smiles": "Nc1nc(=O)[nH]cc1F", "class_name": "no (0)"}
{"molecule_smiles": "OC(Cn1cncn1)(Cn1cncn1)c1ccc(F)cc1F", "class_name": "no (0)"}

In the record for `CC[C@@H]([C@H](C)O)n1ncn(-c2ccc(N3CCN(c4ccc(OC[C@@H]5CO[C@@](Cn6cncn6)(c6ccc(F)cc6F)C5)cc4)CC3)cc2)c1=O` , is MIC90 less than 0.5 µg/mL?
yes (1)

In the record for `C[C@@H](c1nc(-c2ccc(C#N)cc2)cs1)[C@](O)(Cn1cncn1)c1cc(F)ccc1F` , is MIC90 less than 0.5 µg/mL?
yes (1)

* * *

Test system: Cryptococcus gattii species complex
Experiment: Antifungal activity against Cryptococcus gattii after 72 hrs by broth microdilution method
Type: functional, Cryptococcus bacillisporus
As shown below, each of these compounds has a reported MIC50 value.
Provide only the numeric value, understood in mg/L.

{"compound": "Nc1nc(=O)[nH]cc1F [FLUCYTOSINE]", "result": 2}
{"compound": "C[C@@H](c1nc(-c2ccc(C#N)cc2)cs1)[C@](O)(Cn1cncn1)c1cc(F)ccc1F [ISAVUCONAZOLE]", "result": 0.03}
{"compound": "OC(Cn1cncn1)(Cn1cncn1)c1ccc(F)cc1F [FLUCONAZOLE]", "result": 2}

Would you kindly look at the next entry?
State, in one line, measured MIC50 of C[C@@H](c1ncncc1F)[C@](O)(Cn1cncn1)c1ccc(F)cc1F [VORICONAZOLE]
0.125

Values from ChEMBL document CHEMBL1275580
